Target: Phosphatidylinositol 4-kinase, PI4K (Homo sapiens, UniProt Q9BTU6+Q8TCG2+Q9UBF8+P42356)
Experiment: Binding affinity (Ki) against human phosphatidylinositol 4-kinase
Assay type: protein assay
Flag rule - Ki less than 30 µM flags class 1; the remaining entries get class 0.

Some entries whose results are on file:
{"molecule": "Nc1ncnc2cc3ccccc3cc12", "category": "class 1"}
{"molecule": "Nc1ncnc2c1ncn2-c1cccnc1", "category": "class 0"}
{"molecule": "Cn1ncc2c(N)ncnc21", "category": "class 0"}
{"molecule": "CCC(CC)(CC)n1cnc2c(N)ncnc21", "category": "class 0"}
{"molecule": "CCCCCc1nc2c(N)ncnc2n1-c1ccccc1", "category": "class 0"}
{"molecule": "Nc1ncnc2[nH]c(-c3ccccc3)nc12", "category": "class 0"}

Task: Take the molecule Nc1ncnc2c1ncn2C1CCCO1 (centres undefined) and say whether its Ki is less than 30 µM.
Output: class 1

Task: Does the reported Ki of Nc1ncnc2c1ncn2[C@@H]1O[C@H](CO)[C@@H](O)[C@H]1O stay below 30 µM?
Output: class 1

Task: Given Cn1c(-c2ccccc2)nc2c(N)ncnc21 , is recorded Ki strictly lower than 30 µM?
Output: class 1

Task: Bench note: check whether Nc1ncnc2c1ncn2Cc1ccccc1 shows Ki below 30 µM
Output: class 0

---

Assay: Vmax value was determined
Type: ADME
Can you tell me Vmax for the items I'm about to list?
Give bare numbers, in c.p.m..

For each of the compounds below, note its Vmax.
1. Cl.Nc1ncnc2nc[nH]c12
2. Nc1ncnc2c1ncn2[C@@H]1O[C@H](CO)[C@@H](O)[C@H]1O
3. c1ccc(CNc2ncnc3nc[nH]c23)cc1
4. Nc1ncnc2c1ncn2C1CCCO1 (stereo not given)
5. CCn1cnc2c(N)ncnc21

Output:
[22800, 31400, 25800, 25800, 20800]

---

Target: Phosphatidylinositol 4-kinase, PI4K (Homo sapiens, UniProt Q9BTU6+Q8TCG2+Q9UBF8+P42356)
Assay: Binding affinity (Ki) against human phosphatidylinositol 4-kinase
Type: protein assay
Consider the following molecules; for each one, report its log10 Ki.
Scale: log10; quantity: Ki; unit before log: µM

Below, 5 molecules whose answers are already recorded.
{"molSmiles": "Nc1ncnc2c1cnn2-c1ccccc1", "measuredMetric": "log10 Ki", "reading": 1.04}
{"molSmiles": "Cc1nc2c(N)ncnc2n1-c1ccccc1", "measuredMetric": "log10 Ki", "reading": 1.04}
{"molSmiles": "Cc1ccccc1-n1cnc2c(N)ncnc21", "measuredMetric": "log10 Ki", "reading": 1.22}
{"molSmiles": "CC(C)(C)n1cnc2c(N)ncnc21", "measuredMetric": "log10 Ki", "reading": 0.84}
{"molSmiles": "CC(C)(C)c1ccc(-n2cnc3c(N)ncnc32)cc1", "measuredMetric": "log10 Ki", "reading": 1.50}

Fill in log10 Ki for each of the 2 molecules listed.
1. COc1cccc(-n2cnc3c(N)ncnc32)c1
2. Nc1[nH]cnc2nc(-c3ccccn3)nc1-2

Output:
[1.20, 1.72]

// each molecule listed below needs its log10 Ki
1. Nc1ncnc2c1ncn2-c1cccc(F)c1
2. Nc1ncnc2c1ncn2C12CC3CC(CC(C3)C1)C2
3. Nc1ncnc2c1nc1n2CCCC1
4. Nc1nc2ncnc-2c[nH]1
5. Nc1ncnc2c1nc(-c1ccccc1)n2-c1ccccc1
6. Nc1ncnc2c1ncn2-c1ccccc1
7. Nc1ncnc2c1ncn2C1CCCC1

Output:
1.25
0.61
1.55
2.37
1.04
1.01
0.78

I would be grateful if you could provide log10 Ki for each of the following entries.
1. Nc1ncnc2c1ncn2C1CCCCC1
2. Cl.Nc1[nH]cnc2nc(NCc3ccccc3)nc1-2
3. CC1(n2cnc3c(N)ncnc32)CCCCC1
4. CCn1cnc2c(N)ncnc21
5. Nc1ncnc2scnc12

Output:
0.57
1.96
0.70
1.41
1.91
